# Tested on: HOP-18
# test-description: NCI tumour cell line growth inhibition, 48 h
Active and inactive are the calls of the source. Cut-off read from the data, not from the text of the source: active = GI50 up to about 1.1 µM and inactive = higher.
observed-property: GI50

These solved cases illustrate the format of a correct answer.
N#CCCN(c1ccc(/C=N/c2ccccc2Cl)cc1)S(=O)(=O)c1ccccc1	> 100 µM (inactive)
COc1ccccc1C(=O)N(Cc1ccccc1)c1ccc(Cl)c(C(=O)OC(C)C)c1	14 µM (inactive)
COc1cc(/C=N/N=C(\N)NO)cc(Cl)c1O	19.2 µM (inactive)
COc1ccc(CN2CC(C)(C)C2=O)c(OC)c1	> 100 µM (inactive)
COc1ccc2cc3nc(O)cc(O)c3cc2c1OC	> 100 µM (inactive)

Hello, I would appreciate it if you could give GI50 for each entry below.
1. Cc1ccccc1-n1c(=O)sc2c(=O)n(-c3ccccc3)c(=S)[nH]c21
2. O=C(NNC(=S)Nc1ccccc1)c1nsc2ccccc12

> 100 µM (inactive)
10.3 µM (inactive)

For CCCCNS(=O)(=O)c1ccc(-c2ccc3c(c2)-c2ccc(S(=O)(=O)NCCCC)cc2S3(=O)=O)cc1 , what is its reported GI50?
20.7 µM (inactive)

The reported measurements were obtained from ChEMBL document CHEMBL1201862.
